B1: tRNA (parent)
chain: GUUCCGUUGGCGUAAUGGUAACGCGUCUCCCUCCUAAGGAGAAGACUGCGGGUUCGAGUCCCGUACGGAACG

- Variants of: B1
- assay-method-text: yeast fitness relative to wild type (ratio to wild type); higher = fitter; tRNA-Arg(CCU), competitive growth, 37 C, YPD
Variants at the floor of the assay were thinned out.
Listing: yeast fitness of selected variants

variant-label | qualifier-symbol | yeast fitness
C27G U64A | = | 0.665
U8C G12A U19C C34G C66U A69U | ≤ | 0.5
A15C A69G | = | 0.877
A14U C49G A57U | ≤ | 0.5
C11A C22A C29G | = | 0.545
U13C U16C A57G G68A A69G | ≤ | 0.5
C4A C11A U47G | ≤ | 0.5
C4G U47G U59A C66A | ≤ | 0.5
C11U C31A C55G C60A A70G | = | 0.535
G9C A20C G67C | = | 0.537
G18A U35C U47C G50C | ≤ | 0.5
